# ASSAY SYSTEM: human recombinant ROCK II (Homo sapiens)
# Construct: recombinant human ROCK-II residues 11-552; His6 (N); purchased Millipore GmbH, Schwalbach, Germany
# Sequence (O75116 11-552): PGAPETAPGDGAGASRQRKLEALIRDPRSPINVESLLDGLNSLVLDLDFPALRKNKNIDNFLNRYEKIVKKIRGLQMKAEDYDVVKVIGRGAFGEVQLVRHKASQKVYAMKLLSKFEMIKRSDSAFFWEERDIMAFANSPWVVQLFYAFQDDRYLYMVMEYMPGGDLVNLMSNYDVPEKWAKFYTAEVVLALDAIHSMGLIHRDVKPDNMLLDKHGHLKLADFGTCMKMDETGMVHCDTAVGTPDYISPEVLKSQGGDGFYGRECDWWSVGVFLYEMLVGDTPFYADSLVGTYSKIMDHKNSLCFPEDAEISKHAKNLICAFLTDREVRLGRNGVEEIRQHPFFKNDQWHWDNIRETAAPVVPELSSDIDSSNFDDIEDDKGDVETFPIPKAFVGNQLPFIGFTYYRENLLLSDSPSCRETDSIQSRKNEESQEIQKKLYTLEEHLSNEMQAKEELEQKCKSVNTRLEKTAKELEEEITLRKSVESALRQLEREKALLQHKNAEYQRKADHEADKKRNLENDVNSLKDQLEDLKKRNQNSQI
# TEST DETAILS: Determination of Rho kinase inhibition (ROCK II, Caliper peptide phosphorylation assay)
# Type: biochemical
# CONDITION NOTES: respective form (salt or free base) as obtained in the examples, 60 min at 32° C.
pIC50: −log10 of the molar value.

- COMPOUND: "CCOC1(C(N)CC)CCC(Oc2cc3cc[nH]c(=O)c3cc2Cl)CC1 (mixture of isomers)"
  pIC50: "7.00 to 8.00"
- COMPOUND: "CCCC[C@]1(C(N)CC)CC[C@@H](Oc2cc3c(Cc4ccccc4)c[nH]c(=O)c3cc2Cl)CC1 (stereo partly shown)"
  pIC50: "6.00 to 7.00"
- COMPOUND: "CCC(N)[C@]1(CC)CC[C@H](Oc2c(C)cc3cnccc3c2C)CC1 (stereo partly shown)"
  pIC50: "6.00 to 7.00"
- COMPOUND: "CCC(N)C1(C2CCC2)CCC(Oc2cc3cc[nH]c(=O)c3cc2Cl)CC1 (single isomer, unassigned) [Example 23]"
  pIC50: "6.00 to 7.00"

Reference source for all entries: patent US8399482B2
